// data source = the supplement of paper PMC10065799

- Test system: c-Src
- assay-name: phosphorylation enrichment, bacterial display (enrichment ratio); higher = better substrate or ligand; peptides without Tyr show the background;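 further: 11-residue human phosphosite peptides and single-mutation variants displayed on the E. coli surface, counted by deep sequencing, each peptide's frequency after selection divided by its frequency in the unselected input library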;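 further: frequency after pTyr selection over input frequency; kinase dosed for 20-30% of maximal phosphorylation in three min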
Field: phosphorylation enrichment. Provide a value for each of the sequences that follow.

Q: Give measured phosphorylation enrichment for EEESCYILHSS [PATJ_Y783] (c-Src).
Result: 0.819

Q: Find the measured phosphorylation enrichment of EAIMTYVSSFF [ACTN4_Y260_K255E_YF] with c-Src as test system.
Result: 0.975

Q: Enter measured phosphorylation enrichment, system c-Src, for the sequence shown: EKQARYEIVEE [CDH5_Y223_V227E]
Result: 0.521

Q: Report its phosphorylation enrichment with c-Src as the test system: YSTPPYLLEAA [BRIP1_Y921_S919P]
Result: 1.6

Q: Under c-Src, report phosphorylation enrichment for EFISEYCGEII [EZH2_Y641]
Result: 0.576

Q: Enter phosphorylation enrichment (test system c-Src) for LMLVLYGRIFR [HTR1A_Y215]
Result: 0.644

---

- tested-on: EPHB2 (UniProt P29323)
- Sequence (P29323 whole entry, looked up): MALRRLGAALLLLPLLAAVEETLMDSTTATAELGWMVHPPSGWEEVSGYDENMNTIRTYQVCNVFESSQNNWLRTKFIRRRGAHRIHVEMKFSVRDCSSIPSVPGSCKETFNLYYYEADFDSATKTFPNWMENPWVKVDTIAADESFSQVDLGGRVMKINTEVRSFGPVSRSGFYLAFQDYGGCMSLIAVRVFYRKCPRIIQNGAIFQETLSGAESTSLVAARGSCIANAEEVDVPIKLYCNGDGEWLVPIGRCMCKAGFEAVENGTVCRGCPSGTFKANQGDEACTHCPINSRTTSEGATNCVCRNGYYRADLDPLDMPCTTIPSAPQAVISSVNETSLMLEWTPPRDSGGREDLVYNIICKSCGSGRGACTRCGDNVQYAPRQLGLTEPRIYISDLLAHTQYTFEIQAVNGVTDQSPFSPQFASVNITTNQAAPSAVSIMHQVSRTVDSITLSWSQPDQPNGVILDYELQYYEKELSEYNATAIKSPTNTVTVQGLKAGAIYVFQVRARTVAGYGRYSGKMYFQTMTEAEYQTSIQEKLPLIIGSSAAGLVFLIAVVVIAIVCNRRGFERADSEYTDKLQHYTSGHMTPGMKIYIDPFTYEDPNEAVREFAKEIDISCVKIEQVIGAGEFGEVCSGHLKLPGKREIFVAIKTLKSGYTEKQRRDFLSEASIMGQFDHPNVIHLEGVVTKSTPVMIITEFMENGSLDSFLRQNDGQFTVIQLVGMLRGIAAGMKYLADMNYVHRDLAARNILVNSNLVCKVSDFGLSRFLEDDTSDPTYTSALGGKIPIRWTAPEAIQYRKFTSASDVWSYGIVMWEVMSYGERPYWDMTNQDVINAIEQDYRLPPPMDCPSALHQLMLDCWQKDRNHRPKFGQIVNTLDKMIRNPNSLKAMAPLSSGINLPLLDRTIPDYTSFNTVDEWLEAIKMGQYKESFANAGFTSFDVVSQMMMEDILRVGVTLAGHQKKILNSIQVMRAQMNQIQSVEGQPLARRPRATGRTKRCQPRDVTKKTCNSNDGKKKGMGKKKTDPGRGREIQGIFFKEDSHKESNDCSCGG
- assay-name: phosphorylation enrichment, bacterial display (enrichment ratio); higher = better substrate or ligand; peptides without Tyr show the background
experimental-endpoint: phosphorylation enrichment
Write the number on its own, no unit after it.

Q: State, in one line, measured phosphorylation enrichment of AFLLLCFNDTH [BMP15_Y235_Y235C]
Result: 0.696

Q: Determine from records and report phosphorylation enrichment for KNNDGNIDYAE [MCFD2_Y135_Y135N]
Result: 0.53

Q: Please list phosphorylation enrichment recorded for the sequence LRNIDYHRLDG [ATRX_Y2083_Y2084H]
Result: 0.405

Q: For the sequence LRVKMYNFLRS [ADGRG7_Y760] , give its reported phosphorylation enrichment.
Result: 2.15

Q: Please give measured phosphorylation enrichment of the following entry: SLIDGYFRLTA [JAK2_Y372_YF]
Result: 0.716

Q: Find the measured phosphorylation enrichment of LTAEVYFPSIK [C5orf64_Y60] and report it.
Result: 0.906

Q: Supply phosphorylation enrichment value. Item: PASLSYLSFEG [EXOSC3_Y143]
Result: 0.789

Q: Respond only with phosphorylation enrichment recorded for ERDTVYSSSGV [NELL2_Y350_N347D]
Result: 0.52

Q: Please supply the value of reported phosphorylation enrichment for the item ALEKTYNTFRS [B4GALNT2_Y538_YF]
Result: 0.406

Q: Output phosphorylation enrichment of TLNFCYQQVKS [PTK2_Y148_F147C]
Result: 0.709

---

- tested-on: Fyn (UniProt P06241)
- Sequence (P06241 whole entry, looked up): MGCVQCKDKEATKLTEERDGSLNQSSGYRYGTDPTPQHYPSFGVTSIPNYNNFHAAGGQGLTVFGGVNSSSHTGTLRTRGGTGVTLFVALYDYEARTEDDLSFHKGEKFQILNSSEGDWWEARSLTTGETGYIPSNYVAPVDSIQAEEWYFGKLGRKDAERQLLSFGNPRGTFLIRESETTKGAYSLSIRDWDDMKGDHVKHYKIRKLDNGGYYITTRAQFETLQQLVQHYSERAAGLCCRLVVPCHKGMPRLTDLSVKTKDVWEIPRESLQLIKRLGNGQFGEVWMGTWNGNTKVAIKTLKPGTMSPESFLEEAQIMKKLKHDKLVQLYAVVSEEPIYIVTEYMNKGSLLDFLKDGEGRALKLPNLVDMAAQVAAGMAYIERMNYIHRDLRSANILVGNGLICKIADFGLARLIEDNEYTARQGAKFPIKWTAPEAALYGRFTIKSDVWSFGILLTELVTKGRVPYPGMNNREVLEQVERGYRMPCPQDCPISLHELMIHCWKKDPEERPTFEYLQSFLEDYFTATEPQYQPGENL
- assay-name: phosphorylation enrichment, bacterial display (enrichment ratio); higher = better substrate or ligand; peptides without Tyr show the background
experimental-endpoint: phosphorylation enrichment

Q: GET phosphorylation enrichment | system: Fyn (UniProt P06241) | item: TYQYKYPEGSS [TGM4_Y440_E437Q]
Result: 0.567

Q: Retrieve phosphorylation enrichment on Fyn (UniProt P06241); query PEIIAYQPFGK [PRKCG_Y529_YF]
Result: 0.688

Q: Fill in phosphorylation enrichment for GTTIHYNFMCN [TP53_Y234_C229G_YF] tested with Fyn (UniProt P06241).
Result: 0.477

Q: Retrieve phosphorylation enrichment on Fyn (UniProt P06241); query FTNELYMMMRD [FGFR1_Y730_C725Y_YF]
Result: 1.1

Q: Please respond with reported phosphorylation enrichment (system Fyn (UniProt P06241)) for YDAHNYHPLPV [OAT_Y55_G51D] .
Result: 0.864

Q: System Fyn (UniProt P06241). Read-out phosphorylation enrichment. Item PPQFSYGLQTQ [SRA1_Y35] . Report value.
Result: 0.346

Q: Enter phosphorylation enrichment (test system Fyn (UniProt P06241)) for GNYSGYDDAWD [POLR1C_Y36]
Result: 0.597

Q: Under Fyn (UniProt P06241), report phosphorylation enrichment for ILGRFYERGSI [PAX5_Y73_T75R_YF]
Result: 0.483

Q: Write phosphorylation enrichment of NTGYYYDLYGG [PTPN11_Y63_D61Y] ; system used: Fyn (UniProt P06241)
Result: 5.76

Q: State, for Fyn (UniProt P06241), measured phosphorylation enrichment of the sequence listed here: VAVVDYVEPSP [TXNRD2_Y70]
Result: 0.53

Q: Under Fyn (UniProt P06241): report phosphorylation enrichment of DFDHSYFFIAT [ESD_Y262_G257D_YF] .
Result: 0.55

---

Answer each item with its documented phosphorylation enrichment.
- Test system: c-Abl (mouse)
- assay-name: phosphorylation enrichment, bacterial display (enrichment ratio); higher = better substrate or ligand; peptides without Tyr show the background
Could you keep your reply to the number by itself?

Q: Supply recorded phosphorylation enrichment for SVVMPYEPPEV [TP53_Y220_V218M] here.
Result: 0.66

Q: Annotate the sequence LFHENYNAGTY [CFI_Y421_I416L] with its measured phosphorylation enrichment.
Result: 1.22

Q: Answer with reported phosphorylation enrichment of SETDDYAEIID [PTK2_Y397]
Result: 1.05

Q: Provide phosphorylation enrichment value for the following sequence: LNECHYGALIG [BPGM_Y92_R90C]
Result: 1.4

Q: Supply measured phosphorylation enrichment of FDNPIYQKTTE [LDLR_Y828_V827I] in your reply.
Result: 1.82

Q: Output phosphorylation enrichment of RPPFTYATLIR [FOXP3_Y342]
Result: 0.686

Q: // fetch phosphorylation enrichment given entry QGIIIYKAAYF [SLC25A4_Y187_R188K]
Result: 1.85

Q: Return phosphorylation enrichment for the following sequence: WQQQSYLDSVI [CTNNB1_Y30_G34V]
Result: 0.806

Q: Please supply the value of reported phosphorylation enrichment for the item VRFMADTDETF [F8_Y450_Y450D]
Result: 0.856

Q: Fill in reported phosphorylation enrichment for this entry: TNQVIYLNPPI [DYNC1H1_Y970]
Result: 13.9

Q: Supply measured phosphorylation enrichment of ERIELYELDKK [PMM2_Y145_F144L] in your reply.
Result: 0.641

Q: Note phosphorylation enrichment for the sequence shown: GGYTCYCDGKK [PROS1_Y266]
Result: 0.915

Q: Answer with the recorded phosphorylation enrichment of RNVYYYSYLLK [PTEN_Y178_Y174N] only.
Result: 9.24

Q: Please look at this sequence and report its phosphorylation enrichment: RRNSPYSQTMK [TET2_Y819]
Result: 1.81

Q: Fill in phosphorylation enrichment for record LMIKEYLTKEL [BAG3_Y457_E455K]
Result: 0.666

Q: Answer with reported phosphorylation enrichment of KRFAFYRDSPR [FOXE3_Y108_E103K]
Result: 0.526

Q: # return recorded phosphorylation enrichment for entry SSWKLYPRMLR [HAO1_Y50_R46S]
Result: 0.539

Q: For the sequence LVQAEYWHDPI [PPT1_Y185] , give its reported phosphorylation enrichment.
Result: 1.36

Q: Read the entry RNAAEYPLSSG [ABL1_Y139_L140P] and write its reported phosphorylation enrichment.
Result: 0.647

Q: Look up phosphorylation enrichment of CQAHGYFCQLI [STK11_Y156] and report it.
Result: 0.514

Q: Please list phosphorylation enrichment recorded for the sequence VLNHAYENLTR [SYNE2_Y3255_D3253H]
Result: 0.5

Q: Fill in reported phosphorylation enrichment for this entry: RVDRDYVLKST [HTATIP2_Y111_A116T]
Result: 0.369

Q: Name the recorded phosphorylation enrichment of the item RQEEEYKRLSE [SFSWAP_Y133] in your answer.
Result: 1.43

Q: Report measured phosphorylation enrichment; entry is QISQDYGVLLE [PRDX3_Y172_R170Q]
Result: 1.18

Q: Supply reported phosphorylation enrichment belonging to this sequence: SPYAVYRFFTF [RPGRIP1_Y826]
Result: 1.67

Q: Answer with reported phosphorylation enrichment of VAVVDYVEPSP [TXNRD2_Y70]
Result: 0.627

Q: Give recorded phosphorylation enrichment. FPPTHYIRRMP [SLC4A11_Y820_V824M_YF]
Result: 0.718

Q: Answer with reported phosphorylation enrichment of EEALHYLTRVE [SET_Y119]
Result: 0.748

Q: In one line, give reported phosphorylation enrichment of the entry TLNFCYQQVKS [PTK2_Y148_F147C] .
Result: 0.936

Q: Using known records, supply phosphorylation enrichment for DPGVSYRTREE [PDHA1_Y301]
Result: 0.647

Q: Fill in phosphorylation enrichment for record RAKLFYQEVPA [METTL11B_Y76]
Result: 0.513

Q: Annotate the sequence RFLFFYSFLLK [PTEN_Y178_V175L_YF] with its measured phosphorylation enrichment.
Result: 1.51

Q: For the sequence PPQFSYGLQTQ [SRA1_Y35] , give its reported phosphorylation enrichment.
Result: 0.483

Q: Please list phosphorylation enrichment recorded for the sequence GDPVQYNRTTD [MLPH_Y454]
Result: 0.78

Q: Provide phosphorylation enrichment value for the following sequence: LAVPLYKNGVK [CPS1_Y1069]
Result: 0.777

Q: # return recorded phosphorylation enrichment for input SLNEEYAKNKT [MSH2_Y563_T564A]
Result: 0.674

Q: Output measured phosphorylation enrichment for this item: DFDHSYFFIAT [ESD_Y262_G257D_YF]
Result: 0.958

Q: Give reported phosphorylation enrichment value for PAGSGYPAFLG [ATP6V1A_Y374_D371G_YF]
Result: 0.869

Q: State, in one line, measured phosphorylation enrichment of QNKEDYDGLKE [GSTO1_Y139_A140D]
Result: 1.19

Q: For the sequence ARLDEYIAIAK [RCOR3_Y46_K42R] , report phosphorylation enrichment.
Result: 0.516

Q: Give the value of phosphorylation enrichment reported for the following: PGVDIYVSPNM [PADI3_Y51_I52V]
Result: 2.3

Q: Tell me its phosphorylation enrichment given GYQPEYGQPAG [SYP_Y278_D277E] as the entry.
Result: 0.466

Q: Provide measured phosphorylation enrichment value, entry: IDDLEYLHSQG [STK11_Y166_G163D]
Result: 0.636

Q: Given GFSRHCEDGFP [CTNND1_Y217_Y217C_YF] , respond with its phosphorylation enrichment.
Result: 0.83

Q: Check the records and state phosphorylation enrichment for ETRWKYHFEVV [GCNT3_Y267]
Result: 0.979

Q: State its phosphorylation enrichment: INNIDYYKKTT [FGFR2_Y656]
Result: 0.627

Q: Using the record for RGGWVYVLHPT [TRMT61A_Y67] , state its measured phosphorylation enrichment.
Result: 0.702
